self-splicing fitness (ln) by entry:
assay: self-splicing fitness, log relative to wild type (ln ratio); higher = more splicing; Tetrahymena group I intron in knt gene, E. coli kanamycin selection, DiMSum; sequences stand for … in CUCUCU…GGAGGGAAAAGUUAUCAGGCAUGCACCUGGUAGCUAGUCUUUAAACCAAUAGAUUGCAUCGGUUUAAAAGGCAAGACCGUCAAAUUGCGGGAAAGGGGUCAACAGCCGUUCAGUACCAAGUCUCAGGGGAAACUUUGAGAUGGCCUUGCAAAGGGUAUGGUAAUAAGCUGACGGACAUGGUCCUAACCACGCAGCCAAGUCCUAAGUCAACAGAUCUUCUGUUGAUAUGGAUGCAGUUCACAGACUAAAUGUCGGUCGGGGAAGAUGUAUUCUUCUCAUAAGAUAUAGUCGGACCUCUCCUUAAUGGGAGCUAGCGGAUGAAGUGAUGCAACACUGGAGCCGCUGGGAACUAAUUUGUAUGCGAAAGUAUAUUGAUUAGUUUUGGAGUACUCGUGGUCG; details: 30 °C;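 also: selection with 25 µg/mL kanamycin versus none on LB agar overnight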
Recorded endpoint: self-splicing fitness (ln)

| Biopolymer sequence | Recorded endpoint | Reported result |
| --- | --- | --- |
| UCAUAGCAAUAUUACGAGUA | self-splicing fitness (ln) | -3.06 |
| AUCCAGCAAUAUUACGUUGC | self-splicing fitness (ln) | -3.87 |
| AUUUAGCAAUAUUACGUUUU | self-splicing fitness (ln) | -3.37 |
| CAAUAGCAAUAUUACGGGCU | self-splicing fitness (ln) | -3.42 |
| UGAAAGCAAUAUUACGGGCA | self-splicing fitness (ln) | -0.0393 |
| AGUGAGCAAUAUUACGGGGG | self-splicing fitness (ln) | -3.05 |
| CCGCAGCAAUAUUACGCCUC | self-splicing fitness (ln) | -2.79 |
| CUCGAGCAAUAUUACGCGCC | self-splicing fitness (ln) | -2.53 |
| AACCAGCAAUAUUACGUAAU | self-splicing fitness (ln) | -1.45 |
| AAACAGCAAUAUUACGUGCA | self-splicing fitness (ln) | -1.19 |
| AACCAGCAAUAUUACGACGG | self-splicing fitness (ln) | -2.1 |
| CAGUAGCAAUAUUACGGGAC | self-splicing fitness (ln) | -4.57 |
| AUGCAGCAAUAUUACGGGAU | self-splicing fitness (ln) | -2.25 |
| UCGGAGCAAUAUUACGUCUG | self-splicing fitness (ln) | -2.56 |
| CGCGAGCAAUAUUACGCAAA | self-splicing fitness (ln) | -2.95 |
| UCGUAGCAAUAUUACGAUCU | self-splicing fitness (ln) | -1.92 |
| AACUAGCAAUAUUACGUCUU | self-splicing fitness (ln) | 0.0966 |
| GGGGAGCAAUAUUACGGGGC | self-splicing fitness (ln) | -2.92 |
| AAACAGCAAUAUUACGAGUU | self-splicing fitness (ln) | -1.94 |
| ACGGAGCAAUAUUACGUACG | self-splicing fitness (ln) | -2.38 |
| UCAGAGCAAUAUUACGCGGU | self-splicing fitness (ln) | -4.12 |
| AUGUAGCAAUAUUACGCGCG | self-splicing fitness (ln) | -0.882 |
| GCCUAGCAAUAUUACGCUUA | self-splicing fitness (ln) | -1.01 |
| GAGUAGCAAUAUUACGCUAA | self-splicing fitness (ln) | -1.92 |
| CUCGAGCAAUAUUACGGGAA | self-splicing fitness (ln) | -3.85 |
| GUAUAGCAAUAUUACGUAUU | self-splicing fitness (ln) | -4.14 |
| GCAAAGCAAUAUUACGAGCC | self-splicing fitness (ln) | -2.28 |
| GACAAGCAAUAUUACGGAGU | self-splicing fitness (ln) | -3.03 |
| UGGUAGCAAUAUUACGACCG | self-splicing fitness (ln) | -1.22 |
| CCAUAGCAAUAUUACGUCAC | self-splicing fitness (ln) | -3.48 |
| UGAUAGCAAUAUUACGCCGA | self-splicing fitness (ln) | -2.91 |
| CGGGAGCAAUAUUACGCAGA | self-splicing fitness (ln) | -3.67 |
